test system: S. cerevisiae NKY1551 his4x/his4B, sporulating; assay: HIS4 meiotic recombination assay sensitivity score (z-score vs DMSO controls); higher = stronger inhibition of sporulation/recombination, active = hit call of the paper;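 also: active if sensitivity score above 5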
Where a name gives a salt, the structure may show the parent alone.
Please provide measured HIS4 meiotic recombination assay sensitivity score for the entries that follow.
Answers are plain numbers.

Example cases with answers are listed next.
[
  {
    "compound": "CCC1=C(C)CN(C(=O)NCCc2ccc(S(=O)(=O)NC(=O)N[C@H]3CC[C@H](C)CC3)cc2)C1=O [Glimepiride] (stock concentration (mM, diluted 1:100): 7.7)",
    "tested system": "S. cerevisiae NKY1551 his4x/his4B, sporulating",
    "recorded measurement": 1.27
  },
  {
    "compound": "O=C(CCCN1CC=C(n2c(=O)[nH]c3ccccc32)CC1)c1ccc(F)cc1 [Droperidol] (stock concentration (mM, diluted 1:100): 10)",
    "tested system": "S. cerevisiae NKY1551 his4x/his4B, sporulating",
    "recorded measurement": -0.15
  },
  {
    "compound": "O=C1CC[C@@H](C(=O)N2CSC[C@H]2C(=O)O)N1 [Pidotimod] (stock concentration (mM, diluted 1:100): 10)",
    "tested system": "S. cerevisiae NKY1551 his4x/his4B, sporulating",
    "recorded measurement": -0.31
  },
  {
    "compound": "O=C(c1ccc(F)cc1)C1CCN(CCn2c(=S)[nH]c3ccccc3c2=O)CC1 [Altanserin] (stock concentration (mM, diluted 1:100): 10)",
    "tested system": "S. cerevisiae NKY1551 his4x/his4B, sporulating",
    "recorded measurement": -0.6
  },
  {
    "compound": "O=C(O)c1cc(/N=N/c2ccc(S(=O)(=O)Nc3ccccn3)cc2)ccc1O [Sulfasalazine] (stock concentration (mM, diluted 1:100): 10)",
    "tested system": "S. cerevisiae NKY1551 his4x/his4B, sporulating",
    "recorded measurement": -0.54
  }
]

Quick batch: HIS4 meiotic recombination assay sensitivity score for everything below.
1. CCCCC1=NC2(CCCC2)C(=O)N1Cc1ccc(-c2ccccc2-c2nnn[nH]2)cc1 [Irbesartan] (stock concentration (mM, diluted 1:100): 10.1)
2. Cc1nc2ccccn2c(=O)c1CCN1CCC(C(=O)c2ccc(F)cc2)CC1 [Pirenperone] (stock concentration (mM, diluted 1:100): 10)
3. COC(=O)C1=C(C)NC(C)=C(C(=O)OC(C)C)C1c1cccc2nonc12 (stereo unspecified) [Isradipine] (stock concentration (mM, diluted 1:100): 9.9)
4. COc1cc([C@@H]2c3cc4c(cc3[C@@H](O[C@@H]3O[C@@H]5CO[C@@H](C)O[C@H]5[C@H](O)[C@H]3O)[C@H]3COC(=O)[C@H]23)OCO4)cc(OC)c1O [Etoposide] (stock concentration (mM, diluted 1:100): 10)
5. OCCOCCN1CCN(C2=Nc3ccccc3Sc3ccccc32)CC1 [Quetiapine hemifumarate] (stock concentration (mM, diluted 1:100): 7.7)
6. NC1CCN(c2nc3c(cc2F)c(=O)c(C(=O)O)cn3-c2ccc(F)cc2F)C1 (stereo unspecified) [Tosufloxacin tosylate] (stock concentration (mM, diluted 1:100): 7)

-0.26
2.21
5.46
0.11
5.3
-2.15

---

test system: S. cerevisiae AD1-9 (efflux-pump deficient), vegetative growth in YPD; assay: growth sensitivity score (doubling time z-score vs DMSO controls); higher = slower growth, strongly negative scores also mark growth inhibition (complete suppression), active = hit call of the paper
Counter-ions that a name gives are not always drawn.
property: growth sensitivity score
Answers are plain numbers.

[
  {
    "molecule": "Cc1ncc([N+](=O)[O-])n1CCO [Metronidazole] (stock concentration (mM, diluted 1:100): 10)",
    "growth sensitivity score": -0.99
  },
  {
    "molecule": "Cc1nc2ccccn2c(=O)c1CCN1CCC(C(=O)c2ccc(F)cc2)CC1 [Pirenperone] (stock concentration (mM, diluted 1:100): 10)",
    "growth sensitivity score": -0.84
  },
  {
    "molecule": "C#C[C@]1(O)CC[C@H]2[C@@H]3CCc4cc(OC)ccc4[C@H]3CC[C@@]21C [Mestranol] (stock concentration (mM, diluted 1:100): 10)",
    "growth sensitivity score": 3.53
  },
  {
    "molecule": "O=C1CC2(CCCC2)CC(=O)N1CCNCC1COc2ccccc2O1 (configuration not stated) (stock concentration (mM, diluted 1:100): 10)",
    "growth sensitivity score": 3.73
  }
]

Quick batch: growth sensitivity score for everything below.
1. O=C1CN2Cc3c(ccc(Cl)c3Cl)N=C2N1 [Anagrelide hydrochloride] (stock concentration (mM, diluted 1:100): 8.8)
2. CC(C)C[C@H](NC(=O)[C@@H](O)[C@H](N)Cc1ccccc1)C(=O)O [Bestatin] (stock concentration (mM, diluted 1:100): 10)
3. COc1cc(C(=O)NC2CCCNC2)cc(OC)c1OC (configuration not stated) [Troxipide] (stock concentration (mM, diluted 1:100): 10.1)
4. COc1cc(OC)c(C(=O)CCCN2CCCC2)c(OC)c1 [Buflomedil hydrochloride] (stock concentration (mM, diluted 1:100): 8.9)

1. -1.22
2. -1.24
3. -0.49
4. 0.38

Quick batch: growth sensitivity score for everything below.
1. C[C@]12CCC(=O)C=C1CC[C@@H]1[C@@H]2C(=O)C[C@@]2(C)[C@H]1CC[C@]2(O)C(=O)CO [Cortisone] (stock concentration (mM, diluted 1:100): 10)
2. CCN1CC(CCN2CCOCC2)C(c2ccccc2)(c2ccccc2)C1=O (configuration not stated) [Doxapram hydrochloride] (stock concentration (mM, diluted 1:100): 10.4)

[0.78, -0.91]

Quick batch: growth sensitivity score for everything below.
1. COc1cc(C)c(Cc2cnc(N)nc2N)cc1OC [Ormetoprim] (stock concentration (mM, diluted 1:100): 10)
2. N#Cc1ccc(C(c2ccc(C#N)cc2)n2cncn2)cc1 [Letrozol] (stock concentration (mM, diluted 1:100): 10)
3. CCCc1c(OCCCCc2nnn[nH]2)ccc(C(C)=O)c1O (stock concentration (mM, diluted 1:100): 10)

-2.46
20.4
5.49

Quick batch: growth sensitivity score for everything below.
1. CCC(C)n1ncn(-c2ccc(N3CCN(c4ccc(OCC5COC(Cn6cncn6)(c6ccc(Cl)cc6Cl)O5)cc4)CC3)cc2)c1=O (configuration not stated) [Itraconazole] (stock concentration (mM, diluted 1:100): 10.1)
2. Cc1c(O)cccc1C(=O)N[C@@H](CSc1ccccc1)[C@H](O)CN1C[C@H]2CCCC[C@H]2C[C@H]1C(=O)NC(C)(C)C [Nelfinavir mesylate] (stock concentration (mM, diluted 1:100): 8.6)
3. Cc1cc2c(s1)Nc1ccccc1N=C2N1CCN(C)CC1 [Olanzapine] (stock concentration (mM, diluted 1:100): 9.9)
4. CC(C)C[C@H](NC(=O)[C@@H](COC(C)(C)C)NC(=O)[C@H](Cc1ccc(O)cc1)NC(=O)[C@H](CO)NC(=O)[C@H](Cc1c[nH]c2ccccc12)NC(=O)[C@H](Cc1cnc[nH]1)NC(=O)[C@@H]1CCC(=O)N1)C(=O)N[C@@H](CCCNC(=N)N)C(=O)N1CCC[C@H]1C(=O)NNC(N)=O [Goserelin acetate] (stock concentration (mM, diluted 1:100): 9.6)
5. CCCCC[C@H](O)/C=C/[C@H]1[C@H](O)CC(=O)[C@@H]1CCCCCCC(=O)O [Prostaglandin E1] (stock concentration (mM, diluted 1:100): 10)
6. CC(C)(C)NC(=O)[C@H]1CC[C@H]2[C@@H]3CC[C@H]4NC(=O)C=C[C@]4(C)[C@H]3CC[C@]12C [Finasteride] (stock concentration (mM, diluted 1:100): 10)
7. COc1cc2nc(N3CCN(C(=O)c4ccco4)CC3)nc(N)c2cc1OC [Prazosin] (stock concentration (mM, diluted 1:100): 10)
8. CCCCCCCCCCC[C@@H](C[C@@H]1OC(=O)[C@H]1CCCCCC)OC(=O)[C@H](CC(C)C)NC=O [Orlistat] (stock concentration (mM, diluted 1:100): 10)

[21.4, 16.2, -0.74, 0.11, 0.11, 20.2, 2.31, -0.73]

Which growth sensitivity score reading was recorded for the molecule O=[N+]([O-])c1cccc2cn[nH]c12 [7-Nitroindazole] (stock concentration (mM, diluted 1:100): 10) ?
-1.05

---

test system: S. cerevisiae AD1-9 (efflux-pump deficient), vegetative growth in YPD; experiment: growth sensitivity score (doubling time z-score vs DMSO controls); higher = slower growth, strongly negative scores also mark growth inhibition (complete suppression), active = hit call of the paper
Structures can show the parent of a compound that is named as a salt.
property: growth sensitivity score
Give bare numbers.

[
  {
    "compound": "O=c1c(O[C@@H]2O[C@H](CO)[C@H](O)[C@H](O)[C@H]2O)c(-c2ccc(O)c(O)c2)oc2cc(O)cc(O)c12 [Hyperoside] (stock concentration (mM, diluted 1:100): 8.8)",
    "property": "growth sensitivity score",
    "recorded measurement": 0.09
  },
  {
    "compound": "C[C@H](N[C@@H](CCc1ccccc1)C(=O)O)C(=O)N1CCC[C@H]1C(=O)O [Enalaprilat] (stock concentration (mM, diluted 1:100): 10)",
    "property": "growth sensitivity score",
    "recorded measurement": -0.82
  },
  {
    "compound": "NC[C@H]1CC[C@H](C(=O)Oc2ccc(CCC(=O)O)cc2)CC1 [Cetraxate hydrochloride] (stock concentration (mM, diluted 1:100): 9)",
    "property": "growth sensitivity score",
    "recorded measurement": -0.24
  },
  {
    "compound": "CCN1CCCC1CNC(=O)c1cc(S(=O)(=O)CC)c(N)cc1OC (stereo not given) [Amisulpride] (stock concentration (mM, diluted 1:100): 10)",
    "property": "growth sensitivity score",
    "recorded measurement": -0.73
  }
]

Which growth sensitivity score reading was recorded for the compound OCCOCCN1CCN(C2=Nc3ccccc3Sc3ccccc32)CC1 [Quetiapine hemifumarate] (stock concentration (mM, diluted 1:100): 7.7) ?
0.31
